Source listed as patent US20260226067A1.

TARGET: UniProt:Q8TDD5
Sequence (Q8TDD5 whole entry): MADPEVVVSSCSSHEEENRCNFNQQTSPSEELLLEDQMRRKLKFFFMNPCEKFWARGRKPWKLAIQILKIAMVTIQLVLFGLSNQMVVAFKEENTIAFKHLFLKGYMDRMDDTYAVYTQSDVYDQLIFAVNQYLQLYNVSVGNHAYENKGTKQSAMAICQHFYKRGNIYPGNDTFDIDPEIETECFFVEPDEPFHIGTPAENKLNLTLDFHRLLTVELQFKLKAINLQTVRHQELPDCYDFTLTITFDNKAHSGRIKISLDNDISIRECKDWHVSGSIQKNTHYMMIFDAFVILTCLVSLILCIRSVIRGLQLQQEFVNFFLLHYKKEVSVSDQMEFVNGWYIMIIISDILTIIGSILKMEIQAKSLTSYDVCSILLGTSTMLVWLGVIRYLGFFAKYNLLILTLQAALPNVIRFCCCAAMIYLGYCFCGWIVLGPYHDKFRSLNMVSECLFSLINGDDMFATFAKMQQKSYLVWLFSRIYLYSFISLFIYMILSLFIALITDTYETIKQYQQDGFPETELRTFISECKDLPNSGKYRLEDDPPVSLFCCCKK
PROCEDURE SUMMARY: Fluorescent TRPML3 assay (as for TRPML1)
CONDITION: as TRPML1 assay with TRPML3 subtype; read-out: Human TRPML 3 EC50
QUANTITY KIND: EC50

[[record]]
structure_smiles_string = "C[C@@H]1CN(c2ncnc3c2c(-c2ccccc2F)cn3-c2cc(C#N)ccn2)[C@@H](C)CN1C(=O)c1ccccc1"
quantity_kind = "EC50"
result = "< 0.1 µM"


Field EC50 (system: UniProt:Q8TDD5) for entry C[C@@H]1CN(c2ncnc3c2c(N2CCC2)cn3-c2cccc(F)c2)[C@@H](C)CN1C(=O)c1ccccc1 = 0.5 to 2 µM

Field EC50 (system: UniProt:Q8TDD5) for entry C[C@H]1CN(C(=O)c2ccccc2)CCN1c1ncnc2c1c(-c1ccccc1F)cn2-c1cc(C#N)ccn1 = 0.1 to 0.5 µM

Field EC50 (system: UniProt:Q8TDD5) for entry COc1ccccc1C(=O)N1C[C@H](C)N(c2ncnc3c2c(-c2ccccc2F)cn3-c2cc(C#N)ccn2)C[C@H]1C = < 0.1 µM

---

TARGET: Human TRPML2 (Homo sapiens)
Sequence (Q8IZK6 whole entry): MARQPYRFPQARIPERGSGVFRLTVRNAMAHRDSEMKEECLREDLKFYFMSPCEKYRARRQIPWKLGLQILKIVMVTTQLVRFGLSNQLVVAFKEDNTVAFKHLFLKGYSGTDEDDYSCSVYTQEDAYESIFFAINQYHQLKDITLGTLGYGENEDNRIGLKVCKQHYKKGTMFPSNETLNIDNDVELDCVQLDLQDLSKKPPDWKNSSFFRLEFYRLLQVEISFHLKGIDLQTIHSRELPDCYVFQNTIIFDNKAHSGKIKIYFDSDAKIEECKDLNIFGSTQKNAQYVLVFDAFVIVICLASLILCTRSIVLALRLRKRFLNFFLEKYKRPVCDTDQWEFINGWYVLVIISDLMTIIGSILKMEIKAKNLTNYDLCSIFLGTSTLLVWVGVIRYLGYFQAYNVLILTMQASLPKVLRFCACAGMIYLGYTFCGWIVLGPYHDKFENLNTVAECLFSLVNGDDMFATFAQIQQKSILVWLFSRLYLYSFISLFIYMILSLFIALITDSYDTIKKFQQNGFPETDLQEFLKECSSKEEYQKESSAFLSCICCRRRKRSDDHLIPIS
PROCEDURE SUMMARY: Fluorescent TRPML2 assay (as for TRPML1)
CONDITION: as TRPML1 assay with TRPML2 subtype; read-out: Human TRPML 2 EC50
pEC50: −log10 of the molar value.
QUANTITY KIND: pEC50

Record excerpt, results attached:
[[record]]
structure_smiles_string = "C[C@@H]1CN(c2ncnc3c2c(N2CCC2)cn3-c2cc(C#N)ccn2)[C@@H](C)CN1C(=O)c1ccccc1"
quantity_kind = "pEC50"
result = "6.30 to 7.00"

[[record]]
structure_smiles_string = "C[C@@H]1CN(c2ncnc3c2c(C2CC2)cn3-c2cc(C#N)ccn2)[C@@H](C)CN1C(=O)c1ccccc1"
quantity_kind = "pEC50"
result = "< 5.70"

[[record]]
structure_smiles_string = "C[C@@H]1CN(c2ncnc3c2c(-c2ccccc2)cn3-c2cc(C#N)ccn2)[C@@H](C)CN1C(=O)c1ccccc1"
quantity_kind = "pEC50"
result = "5.70 to 6.30"

[[record]]
structure_smiles_string = "C[C@@H]1CN(c2ncnc3c2c(-c2ccccc2F)cn3-c2cc(C#N)ccn2)[C@@H](C)CN1C(=O)c1ccccc1N(C)C"
quantity_kind = "pEC50"
result = "6.30 to 7.00"

[[record]]
structure_smiles_string = "COc1ccccc1C(=O)N1C[C@H](C)N(c2ncnc3c2c(-c2ccccc2F)cn3-c2cc(C#N)ccn2)C[C@H]1C"
quantity_kind = "pEC50"
result = "6.30 to 7.00"

[[record]]
structure_smiles_string = "CC(C)c1ccccc1C(=O)N1C[C@H](C)N(c2ncnc3c2c(-c2ccccc2F)cn3-c2cc(C#N)ccn2)C[C@H]1C"
quantity_kind = "pEC50"
result = "6.30 to 7.00"


# evaluate next
Field pEC50 (system: Human TRPML2 (Homo sapiens)) for entry C[C@@H]1CN(c2ncnc3c2c(N2CCC2)cn3-c2cccc(F)c2)[C@@H](C)CN1C(=O)c1ccccc1 = 5.70 to 6.30

---

TARGET: Human TRPML2 (Homo sapiens)
Construct: expressed in transfected cells
PROCEDURE SUMMARY: Fluorescent TRPML2 assay (as for TRPML1)
Type: cell-based
CONDITION: as TRPML1 assay with TRPML2 subtype; read-out: Human TRPML 2 EC50
pEC50: −log10 of the molar value.
QUANTITY KIND: pEC50

[[record]]
structure_smiles_string = "C[C@@H]1CN(c2ncnc3c2c(C2CCC2)cn3-c2cc(C#N)ccn2)[C@@H](C)CN1C(=O)c1ccccc1"
result = "6.30 to 7.00"


// pEC50 value for C[C@@H]1CN(c2ncnc3c2c(C2CC2)cn3-c2cccc(F)c2)[C@@H](C)CN1C(=O)c1ccccc1 : < 5.70

// pEC50 value for Cc1ccccc1C(=O)N1C[C@H](C)N(c2ncnc3c2c(N2CCC2)cn3-c2cc(C#N)ccn2)C[C@H]1C : 5.70 to 6.30

// pEC50 value for C[C@@H]1CN(c2ncnc3c2c(C(F)(F)F)cn3-c2cc(C#N)ccn2)[C@@H](C)CN1C(=O)c1ccccc1 : 5.70 to 6.30

// pEC50 value for C[C@@H]1CN(c2ncnc3c2c(C(F)(F)F)cn3-c2cccc(F)c2)[C@@H](C)CN1C(=O)c1ccccc1 : < 5.70

// pEC50 value for C[C@@H]1CN(c2ncnc3c2c(N2CCC2)cn3-c2cc(C#N)ccn2)[C@@H](C)CN1C(=O)c1cccc(F)c1 : 6.30 to 7.00

// pEC50 value for C[C@@H]1CN(c2ncnc3c2c(N2CCC2)cn3-c2cc(C#N)ccn2)[C@@H](C)CN1C(=O)c1ccccc1F : 6.30 to 7.00

// pEC50 value for C[C@@H]1CN(c2ncnc3c2c(-c2ccccc2F)cn3-c2cc(C#N)ccn2)[C@@H](C)CN1C(=O)c1ccccc1 : 6.30 to 7.00

// pEC50 value for C[C@@H]1CN(c2ncnc3c2c(N2CCC2)cn3-c2cc(C#N)ccn2)CCN1C(=O)c1ccccc1 : 6.30 to 7.00

// pEC50 value for C[C@H]1CN(C(=O)c2ccccc2)CCN1c1ncnc2c1c(-c1ccccc1F)cn2-c1cc(C#N)ccn1 : 5.70 to 6.30
